Origin of values: the supplement of paper PMC7877785

experiment: self-splicing fitness, log relative to wild type (ln ratio); higher = more splicing; Tetrahymena group I intron in knt gene, E. coli kanamycin selection, DiMSum; sequences stand for … in CUCUCU…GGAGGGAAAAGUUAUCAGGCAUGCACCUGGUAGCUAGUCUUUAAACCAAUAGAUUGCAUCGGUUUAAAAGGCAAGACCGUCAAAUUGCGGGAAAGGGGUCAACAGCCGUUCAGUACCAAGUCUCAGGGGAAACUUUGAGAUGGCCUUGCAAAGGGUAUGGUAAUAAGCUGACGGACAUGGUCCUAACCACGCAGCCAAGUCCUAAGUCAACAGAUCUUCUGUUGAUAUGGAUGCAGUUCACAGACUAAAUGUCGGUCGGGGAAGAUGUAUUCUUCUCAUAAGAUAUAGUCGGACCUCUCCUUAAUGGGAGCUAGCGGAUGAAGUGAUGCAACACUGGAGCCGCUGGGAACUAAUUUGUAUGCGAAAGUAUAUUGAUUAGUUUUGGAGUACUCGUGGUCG; details: 37 °C;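 also: selection with 25 µg/mL kanamycin versus none on LB agar overnight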
Label YES for high-side self-splicing fitness (ln) (at or above -2) and NO for low-side self-splicing fitness (ln) (below it).

> print(dat)
                  chain  assigned.label
1  UCGAAGCAAUAUUACGAGAU              NO
2  AAGCAGCAAUAUUACGAAGU             YES
3  UUCAAGCAAUAUUACGUAGC              NO
4  CGCAAGCAAUAUUACGCGCC             YES
5  UUUCAGCAAUAUUACGCGUU             YES

State whether the measured self-splicing fitness (ln) reaches -2, counting equality as reaching it, for `GGGGAGCAAUAUUACGUGUG`
YES

// query: `AUGCAGCAAUAUUACGUGCU`
YES

* * *

assay: self-splicing fitness, log relative to wild type (ln ratio); higher = more splicing; Tetrahymena group I intron in knt gene, E. coli kanamycin selection, DiMSum; sequences stand for … in CUCUCU…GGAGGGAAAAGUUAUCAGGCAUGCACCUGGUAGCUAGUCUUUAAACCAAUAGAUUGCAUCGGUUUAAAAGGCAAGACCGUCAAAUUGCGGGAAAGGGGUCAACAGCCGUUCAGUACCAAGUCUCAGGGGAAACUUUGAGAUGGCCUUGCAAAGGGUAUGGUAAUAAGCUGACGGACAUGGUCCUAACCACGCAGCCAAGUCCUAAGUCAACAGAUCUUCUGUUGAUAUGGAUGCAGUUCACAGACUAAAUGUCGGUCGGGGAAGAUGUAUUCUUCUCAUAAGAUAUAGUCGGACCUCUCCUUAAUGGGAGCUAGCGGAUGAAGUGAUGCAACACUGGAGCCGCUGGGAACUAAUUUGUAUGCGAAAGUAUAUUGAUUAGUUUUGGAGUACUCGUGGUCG; details: 37 °C
Assay Readout: self-splicing fitness (ln)
Respond using a number only.

Reference set (4 entries):
> print(dat)
                  chain  observed.result
1  CGUAAGCAAUAUUACGAUGC            -2.04
2  AUGCAGCAAUAUUACGAUCA           -0.711
3  GGUCAGCAAUAUUACGCGCU            -2.13
4  CGACAGCAAUAUUACGUCAG            -1.94

Here is another sequence to look at.
Consider the sequence shown here: `UUCCAGCAAUAUUACGUGUG` What is its recorded self-splicing fitness (ln)?
-0.164

* * *

assay: self-splicing fitness, log relative to wild type (ln ratio); higher = more splicing; Tetrahymena group I intron in knt gene, E. coli kanamycin selection, DiMSum; sequences stand for … in CUCUCU…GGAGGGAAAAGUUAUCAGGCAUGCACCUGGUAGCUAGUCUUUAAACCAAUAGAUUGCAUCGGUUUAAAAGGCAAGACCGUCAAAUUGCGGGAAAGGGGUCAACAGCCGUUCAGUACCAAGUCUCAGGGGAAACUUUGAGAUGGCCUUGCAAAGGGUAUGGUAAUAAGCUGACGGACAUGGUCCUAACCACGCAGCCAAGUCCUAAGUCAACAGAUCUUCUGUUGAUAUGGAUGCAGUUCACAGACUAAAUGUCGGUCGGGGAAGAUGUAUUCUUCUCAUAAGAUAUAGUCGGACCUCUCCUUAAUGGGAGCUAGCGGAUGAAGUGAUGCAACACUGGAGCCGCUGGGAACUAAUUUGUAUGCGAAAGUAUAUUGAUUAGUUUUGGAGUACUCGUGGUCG; conditions: 37 °C
Reported self-splicing fitness (ln) values follow for various sequences
Respond using a number only.

Reference set (3 entries):
> print(dat)
                  chain  observed.result
1  UAAGAGCAAUAUUACGCAGG             -2.2
2  CUCAAGCAAUAUUACGCCAU            -1.99
3  CUCAAGCAAUAUUACGGGGA            -1.33

Here is another sequence to look at.
Consider the sequence shown here: `GAAAAGCAAUAUUACGCAAG` What is its recorded self-splicing fitness (ln)?
-1.46

* * *

assay: self-splicing fitness, log relative to wild type (ln ratio); higher = more splicing; Tetrahymena group I intron in knt gene, E. coli kanamycin selection, DiMSum; sequences stand for … in CUCUCU…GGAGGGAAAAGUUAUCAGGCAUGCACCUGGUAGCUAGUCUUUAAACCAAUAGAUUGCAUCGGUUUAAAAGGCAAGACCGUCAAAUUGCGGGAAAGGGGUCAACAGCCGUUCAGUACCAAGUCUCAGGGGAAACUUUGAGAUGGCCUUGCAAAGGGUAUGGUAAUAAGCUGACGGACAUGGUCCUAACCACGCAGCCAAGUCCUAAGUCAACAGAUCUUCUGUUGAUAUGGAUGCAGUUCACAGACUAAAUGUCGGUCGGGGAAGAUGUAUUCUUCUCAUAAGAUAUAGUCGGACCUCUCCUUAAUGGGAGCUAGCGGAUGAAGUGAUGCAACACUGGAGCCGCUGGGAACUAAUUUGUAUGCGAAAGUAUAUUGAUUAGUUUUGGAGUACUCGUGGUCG; details: 30 °C
Label label 1 for high-side self-splicing fitness (ln) (at or above -3) and label 0 for low-side self-splicing fitness (ln) (below it).

Example entries begin here.
> print(dat)
                   chain  assigned.label
 1  CUGUAGCAAUAUUACGCUGA         label 1
 2  GGUGAGCAAUAUUACGUUGA         label 1
 3  UCCUAGCAAUAUUACGGCAG         label 0
 4  UAGUAGCAAUAUUACGAGAG         label 0
 5  GGAAAGCAAUAUUACGCAUU         label 1
 6  UGACAGCAAUAUUACGGCGG         label 1
 7  ACUUAGCAAUAUUACGCUGA         label 1
 8  UGGGAGCAAUAUUACGGCCU         label 1
 9  GGAAAGCAAUAUUACGAGAU         label 1
10  GCAGAGCAAUAUUACGUGCU         label 0

Attention now shifts to the item below.
State whether the measured self-splicing fitness (ln) reaches -3, counting equality as reaching it, for `CCCGAGCAAUAUUACGCGAC`
label 1

* * *

assay: self-splicing fitness, log relative to wild type (ln ratio); higher = more splicing; Tetrahymena group I intron in knt gene, E. coli kanamycin selection, DiMSum; sequences stand for … in CUCUCU…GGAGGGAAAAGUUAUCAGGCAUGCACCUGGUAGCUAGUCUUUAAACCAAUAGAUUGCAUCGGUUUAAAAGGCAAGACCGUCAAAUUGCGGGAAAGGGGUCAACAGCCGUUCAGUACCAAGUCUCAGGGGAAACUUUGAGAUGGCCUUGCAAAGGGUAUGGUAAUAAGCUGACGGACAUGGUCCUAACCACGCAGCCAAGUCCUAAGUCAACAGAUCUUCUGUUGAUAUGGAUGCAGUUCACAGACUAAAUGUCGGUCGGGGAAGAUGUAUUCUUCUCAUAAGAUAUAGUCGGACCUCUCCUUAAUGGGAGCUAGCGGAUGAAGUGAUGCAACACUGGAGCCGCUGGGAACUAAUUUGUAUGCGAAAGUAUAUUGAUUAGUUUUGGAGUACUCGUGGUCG; details: 30 °C
Reported self-splicing fitness (ln) values follow for various sequences

Reference set (10 entries):
> print(dat)
                   chain  observed.result
 1  AUUCAGCAAUAUUACGAAAC            -1.17
 2  CCGUAGCAAUAUUACGAUAA            -4.17
 3  GAUCAGCAAUAUUACGGUCG            -1.42
 4  CGCCAGCAAUAUUACGCGCU            -3.54
 5  CCCGAGCAAUAUUACGGGAA            -4.33
 6  UUCUAGCAAUAUUACGCCUG            -1.79
 7  UCAUAGCAAUAUUACGAUUG            -2.31
 8  UUGUAGCAAUAUUACGUAUU            -3.29
 9  CUAAAGCAAUAUUACGCUGA            -3.03
10  UAUCAGCAAUAUUACGUAUA           -0.696

Here is another sequence to look at.
Consider the sequence shown here: `CCUGAGCAAUAUUACGCAAG` What is its recorded self-splicing fitness (ln)?
-3.97
